Biological target: T1, recombinant human DLL4 (Cat# 1506-D4/CF, R&D Systems) (human, UniProt Q9NR61 27-529)
T1 construct: Bought protein; also called hDLL4; rHuman DLL4
Assay: ELISA, DLL4 coated, Fab 25 nM
Give ELISA absorbance at 450 nm for every item shown.
Give just the number in A450; leave the unit off.

Let me know recorded ELISA absorbance at 450 nm for Fab VH5-51_IGHD5-18*01>3_IGHJ4*01 G100K/G104T G24T/S28R/G35V & V3-4_IGLJ1*01 V91L/S96P S52M (Fab, V domains shown, Fab made in E. coli: VH on CH1 with His6 and Flag tags (Plasmid A), VL on lambda CL (Plasmid E); also called H: KT TRV & L: LP S52M) VH: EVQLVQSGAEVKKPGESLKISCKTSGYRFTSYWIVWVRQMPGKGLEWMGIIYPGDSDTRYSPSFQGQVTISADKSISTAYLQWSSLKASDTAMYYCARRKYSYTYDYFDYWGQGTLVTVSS VL: QTVVTQEPSFSVSPGGTVTLTCGLSSGSVSTSYYPSWYQQTPGQAPRTLIYMTNTRSSGVPDRFSGSILGNKAALTITGAQADDESDYYCLLYMGPGISYVFGTGTKVTVL , thanks. 0.59

Output measured ELISA absorbance at 450 nm for this item: Fab VH1-46_IGHD6-6*01_IGHJ1*01 S102A/S103P/S104F/H111F & L6_IGKJ1*01 S28N/S30D/S31H (Fab, V domains shown, Fab made in E. coli: VH on CH1 with His6 and Flag tags (Plasmid A), VL on kappa CL (Plasmid C); also called H: APFF & L: NDH) VH: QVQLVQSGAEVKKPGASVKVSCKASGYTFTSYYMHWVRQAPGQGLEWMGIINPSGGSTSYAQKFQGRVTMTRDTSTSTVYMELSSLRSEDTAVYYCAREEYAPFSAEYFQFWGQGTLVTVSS VL: EIVLTQSPATLSLSPGERATLSCRASQNVDHYLAWYQQKPGQAPRLLIYDASNRATGIPARFSGSGSGTDFTLTISSLEPEDFAVYYCQQRSNWPPWTFGQGTKVEIKR 0.31
